Please go through the items and note down their IC50.
Target: Renin (Homo sapiens, UniProt P00797)
Sequence (P00797 whole entry): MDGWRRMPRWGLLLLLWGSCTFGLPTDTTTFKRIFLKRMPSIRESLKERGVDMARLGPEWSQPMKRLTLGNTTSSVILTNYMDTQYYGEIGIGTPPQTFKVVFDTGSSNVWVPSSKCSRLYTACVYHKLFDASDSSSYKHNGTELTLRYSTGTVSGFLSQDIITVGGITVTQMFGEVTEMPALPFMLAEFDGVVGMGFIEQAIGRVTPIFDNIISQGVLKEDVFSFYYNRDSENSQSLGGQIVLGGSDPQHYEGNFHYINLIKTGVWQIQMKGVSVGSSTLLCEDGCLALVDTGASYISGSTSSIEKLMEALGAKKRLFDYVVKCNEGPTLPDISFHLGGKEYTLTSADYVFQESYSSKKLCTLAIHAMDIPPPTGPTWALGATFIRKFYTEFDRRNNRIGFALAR
Assay: In vitro inhibition of purified human renin at a pH of 6.0.
Entry rule: numbers only, all in nM.

Query :: For the molecule shown here, CC[C@H]1[C@H](C(=O)N[C@@H](Cc2cscn2)C(=O)N[C@@H](CC2CCCCC2)[C@@H](O)[C@@H](O)CC(C)C)[C@H]1C(=O)N1CCOCC1 , give the reported IC50.
Result :: 200

Query :: // repeat for CC(C)C[C@H](O)[C@H](O)[C@H](CC1CCCCC1)NC(=O)[C@H](Cc1cscn1)NC(=O)[C@@H]1[C@H](Cc2ccccc2)[C@H]1C(=O)N1CCOCC1 and report
Result :: 120

Query :: Please do the same for CC(C)C[C@H](O)[C@H](O)[C@H](CC1CCCCC1)NC(=O)[C@H](Cc1cscn1)NC(=O)[C@@H]1[C@@H](Cc2ccccc2)[C@H]1C(=O)N1CCOCC1 as well.
Result :: 25
